# method.summary: Tigecycline plasma PK and % F after PO enteric-coated capsule in dogs
# Format: in vivo, Beagle dogs
# setup.conditions: female, beagle, dog, plasma, po, 30 mg, PO 30 mg enteric-coated capsule with 500 mg CA and 100 mg LLC ([…]), SC430; mean excluding animal 5256; read-out: AUC(0-t)
quantity: AUC(0-t) (ng·h/mL)
Reply numerically in ng·h/mL, unit not repeated.

Supply measured AUC(0-t) of CN(C)c1cc(NC(=O)CNC(C)(C)C)c(O)c2c1C[C@H]1C[C@H]3[C@H](N(C)C)C(O)=C(C(N)=O)C(=O)[C@@]3(O)C(O)=C1C2=O in your reply. 367

====

# method.summary: Tigecycline plasma PK after IV bolus in anesthetized rats
# Assay type: in vivo
# setup.conditions: female, Sprague-Dawley, rat, RA869, IV, 0.6 mg/kg
quantity: Cmax (ng/mL)
Reply numerically in ng/mL, unit not repeated.

Supply measured Cmax of CN(C)c1cc(NC(=O)CNC(C)(C)C)c(O)c2c1C[C@H]1C[C@H]3[C@H](N(C)C)C(O)=C(C(N)=O)C(=O)[C@@]3(O)C(O)=C1C2=O in your reply. 369

====

# method.summary: Tigecycline plasma PK and % F after PO enteric-coated capsule in dogs
# Type: in vivo, Beagle dogs
# setup.conditions: female, beagle, dog, plasma, po, 15 mg, target dose 15 mg, enterically coated capsule; time scale adjusted to 4 hours; read-out: Observed AUC(0-t)
quantity: AUC(0-t) (ng·h/mL)
Reply numerically in ng·h/mL, unit not repeated.

Supply measured AUC(0-t) of CN(C)c1cc(NC(=O)CNC(C)(C)C)c(O)c2c1C[C@H]1C[C@H]3[C@H](N(C)C)C(O)=C(C(N)=O)C(=O)[C@@]3(O)C(O)=C1C2=O in your reply. 133

====

# method.summary: Tigecycline plasma PK and % F after PO enteric-coated capsule in dogs
# Type: in vivo, Beagle dogs
# setup.conditions: female, beagle, dog, plasma, po, 15 mg, Tigecycline Plasma Concentration, 15 min; PO 15 mg unformulated enteric-coated capsule, SC424; mean
quantity: concentration at 15 min (µg/mL)
Reply numerically in µg/mL, unit not repeated.

Supply measured concentration at 15 min of CN(C)c1cc(NC(=O)CNC(C)(C)C)c(O)c2c1C[C@H]1C[C@H]3[C@H](N(C)C)C(O)=C(C(N)=O)C(=O)[C@@]3(O)C(O)=C1C2=O in your reply. 0

====

# method.summary: Tigecycline plasma PK after IV bolus in anesthetized rats
# Format: in vivo
# setup.conditions: female, Sprague-Dawley, rat, IV bolus 0.64 mg/kg, PBS (RA851), 60 min
# Experimental: Naïve, female Sprague-Dawley Rats (Taconic Farms, Germantown, N.Y.) housed in groups of three were maintained in a climate-controlled room on a 12:12 h light-dark cycle with food and water available ad libitum. Animals weighed approximately 250 g at the time of testing. […] Female rats were maintained in groups of 3 per polycarbonate (or equivalent) shoebox cage with fresh wood chip bedding at 20-22° C. under a 12 hour on/off light:dark cycle. […] Animal weights were determined post-anesthesia induction. […]
quantity: concentration at 60 min

Supply measured concentration at 60 min of CN(C)c1cc(NC(=O)CNC(C)(C)C)c(O)c2c1C[C@H]1C[C@H]3[C@H](N(C)C)C(O)=C(C(N)=O)C(=O)[C@@]3(O)C(O)=C1C2=O in your reply. 290 ng/mL
